- System: KM12
- test details: NCI tumour cell line growth inhibition, 48 h
Active and inactive are the calls of the source. Cut-off read from the data, not from the text of the source: active = GI50 up to about 1.1 µM and inactive = higher.
Labels: 1.0 = active, 0.0 = inactive

Cc1ccc([N+](=O)[O-])cc1NC(=O)c1cccc([N+](=O)[O-])c1O
0.0
Cc1c(C)c(C)c(Cn2[nH]c(=O)n(C)c2=O)c(C)c1C
0.0
CC(C)C1CC[C@H](C)C[C@@H]1OC(=O)C(C(=O)O[C@H]1C[C@@H](C)CCC1C(C)C)C(O)[C@@H]1OC(C)(C)O[C@H]1C1COC(C)(C)O1 (some centres not stated)
0.0
COc1ccc(-c2cc3ccccc3[nH]c2=O)cc1OC
0.0
CSCCC(NC(=O)Cc1ccc(C(=O)c2ccccc2)cc1)C(=O)N1CCN(CCCCN2c3ccccc3Sc3cc(N=[N+]=[N-])ccc32)CC1 (configuration not stated)
0.0
NC(=O)/N=C1\NCCC(=O)N1CCc1c[nH]c2ccccc12
0.0
CCCCCCCCCCCC[C@@H](O)[C@H]1CCC([C@H](O)CCCCC(=O)CCCCCCCC2=C[C@H](C)OC2=O)O1 (some centres not stated)
0.0
COc1ccc(C(=O)Nc2ccn(CCOC(=O)c3ccc(OC)cc3)c(=O)n2)cc1
0.0
C=CCCC1CCCCC/C1=N\N(C)C (configuration not stated)
0.0
CC(NC1=NCCO1)c1cccc([N+](=O)[O-])c1 (configuration not stated)
0.0
CC(C)n1c2c(c3ccccc3c1=O)C(=O)c1ccccc1-2
0.0
Cc1cc(C)c(S(=O)(=O)N(CCCN)OCCON(CCCN)S(=O)(=O)c2c(C)cc(C)cc2C)c(C)c1
0.0
CN(C)N1C(=O)CC2(CCN(CCCC(=O)c3ccc(F)cc3)CC2)C1=O
0.0
COc1ccc(/C=N/Nc2nc3ccccc3c(=O)n2-c2ccccc2)c(OCc2ccccc2)c1
0.0
COc1cc(OC)cc(C(=O)Cc2c(C(=O)c3ccccc3)c3ccccc3n2C(=O)c2ccccc2)c1
0.0
CSc1nc2c(nc(N)n2C2OC(CO)C(O)C(O)C2O)c(=O)n1C (configuration not stated)
0.0
C1CSCCSCCSCCSCCS1
0.0
O=C(OC1C2OC(=O)c3cc(O)c(O)c(O)c3Oc3cc4c(c(O)c3O)-c3c(cc(O)c(O)c3O)C(=O)OCC3OC(O)C(OC(=O)c5cc(O)c(O)c(O)c5Oc5cc6c(c(O)c5O)-c5c(cc(O)c(O)c5O)C(=O)OC1C(COC6=O)OC2O)C(OC(=O)c1cc(O)c(O)c(O)c1)C3OC4=O)c1cc(O)c(O)c(O)c1 (configuration not stated)
0.0
O=NN(CCCl)C(=O)NCc1ccc[n+]([O-])c1
0.0
N#CC1Cc2cc3c(cc21)OCO3 (configuration not stated)
0.0
COc1cc(Nc2nc3ccccc3n3cccc23)cc(OC)c1OC
0.0
CCC1=C(C=O)c2cc3[nH]c(cc4nc(c5c6[nH]c(cc1n2)c(C)c6C(=O)C5C(=O)OC)C(CCC(=O)OC)C4C)c(C)c3CC (configuration not stated)
0.0
O=C1N/C(=N/N=C\c2ccccc2)N/C1=C/c1ccccc1
0.0
O=C(O)C1CCCN1C(=O)c1cc(Cl)ccn1 (configuration not stated)
0.0
CN(C)C(=O)Oc1ccc(-c2cn3cc(NC(=O)c4ccccc4)ccc3n2)cc1
0.0
CC1Oc2c(c(=O)oc3ccccc23)[C@@]1(C)CC1C[C@H](C)C(=O)O1 (some centres not stated)
0.0
CC1=C[C@]2(CC(C)C3C(CC4(C)C5CCC6C(C)(C)C(=O)CC[C@@]67C[C@@]57CC[C@]34C)O2)OC1=O (some centres not stated)
0.0
CC(C)(C)OC(=O)N1C(=O)OC[C@@H]2C=C[C@@H]21
0.0
O=C1/C(=C/c2ccc(O)c([N+](=O)[O-])c2)CCC/C1=C\c1ccc(O)c([N+](=O)[O-])c1
0.0
COc1cc(-c2c3c(cc4c2OCO4)[C@@H](Nc2ccc(-c4ccc(-c5ccc(N[C@@H]6c7cc8c(cc7C(c7cc(OC)c(O)c(OC)c7)[C@H]7C(=O)OC[C@H]67)OCO8)cc5)cc4)cc2)[C@H]2COC(=O)[C@@H]2C3)cc(OC)c1O (some centres not stated)
0.0
C[N+]1=c2c3cccc4cccc(c(=O)n2CC1)c43
0.0
Nc1ncnc2c1ccn2C/C=C\CO
0.0
CC1CNc2ccccc2N=C1NN (configuration not stated)
0.0
CN(C)c1nc(NC23CC4CC(CC(C4)C2)C3)nc(N(C)C)n1
0.0
C=C(CO)[C@H]1CC/C(C)=C/CC/C(C)=C/C/C=C(\C)[C@H](O)C1
0.0
CC1=C[C@H]2C[C@@]3(C)O[C@@H]([C@]4(C)CC[C@H]([C@@H](C)C(=O)O)OO4)CC3C(C)(C)[C@H]2CC1 (some centres not stated)
1.0
C1=N\CCOCC/N=C/c2ccccc2OCc2cccc(n2)COc2ccccc2/1
0.0
